# target of assay: Solute carrier family 2, facilitated glucose transporter member 1 (Homo sapiens) (UniProt P11166)
# Sequence (P11166 whole entry): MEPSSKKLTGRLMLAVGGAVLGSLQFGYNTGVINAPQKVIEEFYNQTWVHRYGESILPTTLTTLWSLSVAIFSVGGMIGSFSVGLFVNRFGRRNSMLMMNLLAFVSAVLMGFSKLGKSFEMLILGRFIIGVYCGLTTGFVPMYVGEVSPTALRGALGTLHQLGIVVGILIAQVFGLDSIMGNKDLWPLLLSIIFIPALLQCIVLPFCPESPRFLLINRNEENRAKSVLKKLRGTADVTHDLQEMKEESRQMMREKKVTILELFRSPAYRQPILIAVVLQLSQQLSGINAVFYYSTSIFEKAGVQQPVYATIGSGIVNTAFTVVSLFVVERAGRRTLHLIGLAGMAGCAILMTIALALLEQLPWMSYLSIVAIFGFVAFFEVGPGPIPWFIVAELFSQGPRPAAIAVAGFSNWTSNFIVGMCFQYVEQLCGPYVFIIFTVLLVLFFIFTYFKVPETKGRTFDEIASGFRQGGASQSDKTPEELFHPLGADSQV
# assay: ST_JUDE_LEISH: Cytotoxicity at 2uM final concentration against transgenic Leishmania Mexicana promastigotes LmGLUT1 that are glucose transport deficient and complemented with the human glucose transporter GLUT1. Activity is measured by DNA content using SYBR green in vitro
# Format: functional
measurement kind: inhibition (%)
Reply numerically in %, unit not repeated.

[[record]]
compound = "NC(=O)c1sc(-n2cnc3ccccc32)cc1OCc1ccccc1[N+](=O)[O-]"
measurement_kind = "inhibition"
observed_value = 8.87

[[record]]
compound = "Cn1c(NCc2cc(F)cc3c2OCOC3)nc2cc(Nc3ccnc(Nc4cccc(CS(C)(=O)=O)c4)n3)ccc21"
measurement_kind = "inhibition"
observed_value = -1.66


query: Item "COc1cccc(NC(=O)NC2CCN(CCCCCNC(=O)/C=C/c3ccc(Cl)c(Cl)c3)CC2)c1" has what recorded inhibition?
result: 0.13

query: And then "Oc1ccc2ccccc2c1C=NNc1nc(=Nc2ccccc2)nc(N2CCOCC2)[nH]1" , what is it?
result: 4.21

query: Please answer likewise for CC(CCCCOCCc1ccccc1)NCC(O)c1cc(Cl)c(N)c(Cl)c1 (stereo not given)
result: 2.66

* * *

This section presents molecules with their documented inhibition values.
# target of assay: Hexose transporter 1 (Plasmodium falciparum)
# assay: ST_JUDE_LEISH: Cytotoxicity at 2uM final concentration against transgenic Leishmania Mexicana promastigotes LmPfHT that are glucose transport deficient and complemented with the Plasmodium falciparum hexose transporter. Activity is measured by DNA content using SYBR green in vitro
# Assay type: functional
Number only, in %; omit the unit.

Field: example entries. Status: answers known.
[[record]]
molecule = "Cc1cccc2nc(-c3ccc(-c4ccc(CN5CCOCC5)cc4)cc3)[nH]c12"
measurement_kind = "inhibition"
observed_value = 3.46

[[record]]
molecule = "Brc1ccc(C=NNc2nc3ccccc3[nH]2)cc1"
measurement_kind = "inhibition"
observed_value = 4.26

[[record]]
molecule = "COC(=O)c1cccc(CNCc2cccc(-c3cccc(-c4nc5cc(F)ccc5[nH]4)c3)c2)c1"
measurement_kind = "inhibition"
observed_value = 5.92


query: Param readout = inhibition; param system = Hexose transporter 1 (Plasmodium falciparum); param query = COC(=O)c1cc(OC2CCOC2=O)cc2c1OC(C)(C)O2 (stereo not given) ; response: value
result: 12.7

query: And then "COc1nc2c(CCN3CCC(NCc4ccc5c(c4)NC(=O)CO5)CC3)c(Cl)cnc2cc1F" , what is it?
result: 0.9

query: Repeat for the following molecule: "O=C(Nc1ccccc1)N(Cc1cccc(-c2cccc(CNCCc3ccccc3)c2)c1)C1CCN(Cc2ccccc2)CC1"
result: 2.49

query: Same question, "COc1ccc(C=C2SC(=O)N=C2Nc2ccccc2)c(OC)c1" this time
result: 5.61

query: What do you have for "COc1ccc(NC(=O)/C=C/c2ccc(Oc3ccccc3Cl)c([N+](=O)[O-])c2)cc1OCCN(C(C)C)C(C)C" ?
result: -0.91

query: What do we get for "Cc1cccc(NC(=O)Nc2cccc(-c3ccc(-c4nc5cc(C(F)(F)F)ccc5[nH]4)cc3)c2)c1" ?
result: 2.01

query: Likewise for "COc1cc2nc(NCc3cccc(CNC(=O)c4ccc(-c5ccc(C(C)=O)cc5)cc4)c3)nc(N)c2cc1OC" ?
result: -0.03
